Molecular target: T1, purified recombinant human folate receptor alpha (rh-FRα) (human, UniProt P15328 25-234)
T1 construct: One is secreted from CHO cells, with a human Ig kappa leader and a C-terminal 6x His tag replacing the GPI attachment site; The other is from Sf9 cells, with an N-terminal 6x His tag and the GPI site intact; also called FR-alpha; FOLR1
T1 sequence (P15328 25-234 limits assumed): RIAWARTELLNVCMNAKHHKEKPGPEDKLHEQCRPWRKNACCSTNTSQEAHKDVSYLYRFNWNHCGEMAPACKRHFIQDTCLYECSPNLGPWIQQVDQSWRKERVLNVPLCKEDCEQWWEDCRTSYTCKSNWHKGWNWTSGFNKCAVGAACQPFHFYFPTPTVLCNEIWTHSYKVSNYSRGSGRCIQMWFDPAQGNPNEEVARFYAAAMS
Experiment: SPR, BIACORE T100, antibody captured on anti-mouse IgG, rh-FRα 1-30 nM as analyte, single-cycle kinetics, 1:1 fit
MEASURED QUANTITY: Kd (nM)
# number only, unit nM dropped from output

Data request: Can you look up the measured Kd of Monoclonal antibody 26B3.F2 (antibody, mouse IgG1, V domains shown, also called MAb 26B3; ATCC PTA-11885) VH: GPELVKPGASVKISCKASDYSFTGYFMNWVMQSHGKSLEWIGRIFPYNGDTFYNQKFKGRATLTVDKSSSTAHMELRSLASEDSAVYFCARGTHYFDYWGQGTTLTVSS VL: PASLSASVGETVTITCRTSENIFSYLAWYQQKQGISPQLLVYNAKTLAEGVPSRFSGSGSGTQFSLKINSLQPEDFGSYYCQHHYAFPWTFGGGSKLEIKR for me?
Data returned: 0.0273
